Target: HLA-A*02:01 (Homo sapiens, UniProt P04439, D140Y/D185E/D98H/E176V/E277Q/G131W/G231S/I119V/I121R/I166T/I218V/L300P/L318F/N151K/N90K/P208A/P217A/Q86G/Q94H/R138H/R169H/T345S)
Experiment: MHC binding assay (UV-ligand exchange, anti-β2m ELISA)
Settings: peptide exchange yield, binding to HLA-A*02:01
reported-metric: Peptide exchange

Solved entries (count: 4):
substance | reported
75 (KLHDTSFCL; peptide displayed by HLA-A*02) [compound 75] | ++++ (≥75% = ++++)
62 (FLKDVTAQI; peptide displayed by HLA-A*02) [compound 62] | ++++ (≥75% = ++++)
36 (SLYDFTGEQMAA; peptide displayed by HLA-A*02) [compound 36] | +++ (≥50% = +++)
48 (AIYHDITGISV; peptide displayed by HLA-A*02) [compound 48] | +++ (≥50% = +++)

Req: Endpoint output: Peptide exchange of 57 (SLDISLPNL; peptide displayed by HLA-A*02) [compound 57] . Value?
Resp: ++++ (≥75% = ++++)

---

Biological target: HLA-A*02:01 (Homo sapiens, UniProt P04439, D140Y/D185E/D98H/E176V/E277Q/G131W/G231S/I119V/I121R/I166T/I218V/L300P/L318F/N151K/N90K/P208A/P217A/Q86G/Q94H/R138H/R169H/T345S)
Assay: MHC binding assay (UV-ligand exchange, anti-β2m ELISA)
Conditions: peptide exchange yield, binding to HLA-A*02:01
reported-metric: Peptide exchange

Solved entries (count: 8):
substance | Peptide exchange
63 (GLDRTQLVNV; peptide displayed by HLA-A*02) [compound 63] | ++++ (≥75% = ++++)
98 (NLLADVSTV; peptide displayed by HLA-A*02) [compound 98] | +++ (≥50% = +++)
95 (KLAPEDLADLTAL; peptide displayed by HLA-A*02) [compound 95] | ++++ (≥75% = ++++)
32 (ALADLTGTVVNL; peptide displayed by HLA-A*02) [compound 32] | ++++ (≥75% = ++++)
85 (LLDITNPVL; peptide displayed by HLA-A*02) [compound 85] | ++++ (≥75% = ++++)
51 (HLCNHDVSL; peptide displayed by HLA-A*02) [compound 51] | ++++ (≥75% = ++++)
30 (QLMEKVQDV; peptide displayed by HLA-A*02) [compound 30] | +++ (≥50% = +++)
56 (LLDSTAHLL; peptide displayed by HLA-A*02) [compound 56] | ++++ (≥75% = ++++)

Next substance, please.
Req: Endpoint output: Peptide exchange of 83 (FLNVDVSEV; peptide displayed by HLA-A*02) [compound 83] . Value?
Resp: ++++ (≥75% = ++++)

---

Molecular target: HLA-A*02:01 (Homo sapiens, UniProt P04439, D140Y/D185E/D98H/E176V/E277Q/G131W/G231S/I119V/I121R/I166T/I218V/L300P/L318F/N151K/N90K/P208A/P217A/Q86G/Q94H/R138H/R169H/T345S)
Assay: MHC binding assay (UV-ligand exchange, anti-β2m ELISA)
Conditions: peptide exchange yield, binding to HLA-A*02:01

substance | Peptide exchange
65 (ILLDKSTVL; peptide displayed by HLA-A*02) [compound 65] | ++++ (≥75% = ++++)
2 (RLLEGDFSL; peptide displayed by HLA-A*02) [compound 2] | ++++ (≥75% = ++++)
19 (RLLDTTDVYLL; peptide displayed by HLA-A*02) [compound 19] | ++++ (≥75% = ++++)

The measured values listed here are drawn from patent US11969464B2.
